target: UniProt:P13945; test: HTRF cAMP antagonist assay (IC50 determination); format: cell-based; conditions: CHO-K1 cells stably expressing recombinant receptor; antagonism of isoproterenol at EC90; cAMP readout
Sequence (P13945 whole entry, species assumed): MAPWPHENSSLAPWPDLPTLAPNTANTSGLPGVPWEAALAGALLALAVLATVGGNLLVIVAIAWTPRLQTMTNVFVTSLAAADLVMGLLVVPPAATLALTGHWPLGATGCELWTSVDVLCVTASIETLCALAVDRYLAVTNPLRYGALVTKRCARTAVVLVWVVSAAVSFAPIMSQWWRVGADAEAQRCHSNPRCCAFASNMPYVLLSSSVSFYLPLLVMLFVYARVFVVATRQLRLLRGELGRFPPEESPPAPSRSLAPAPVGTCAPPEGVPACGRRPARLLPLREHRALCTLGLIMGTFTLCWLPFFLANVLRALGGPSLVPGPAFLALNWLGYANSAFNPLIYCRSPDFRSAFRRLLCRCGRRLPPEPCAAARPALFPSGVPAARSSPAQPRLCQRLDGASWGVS
Reported metric: IC50 (µM)

These solved cases illustrate the format of a correct answer.
INSERT INTO results (structure_string, data_value) VALUES
  ('CC(C)(C)NCc1ccc(-c2cccc(S(=O)(=O)N3CCC4(CC3)C[C@H](NC[C@H](O)COc3cccc(S(=O)(=O)C5(CO)CC5)c3)CO4)c2)cc1', 0.0317),
  ('O=S(=O)(CCO)c1cccc(OC[C@@H](O)CN[C@H]2COC3(CCN(S(=O)(=O)c4cccc(-c5ccncc5)c4)CC3)C2)c1', 0.411);

1: CCn1cc(S(=O)(=O)N2CCC3(CC2)C[C@H](NC[C@@H](O)COc2cccc(S(C)(=O)=O)c2)CO3)c(=O)c2ccccc21
2: O=S(=O)(CCCO)c1cccc(OC[C@@H](O)CN[C@H]2COC3(CCN(S(=O)(=O)c4ccc5ncccc5c4)CC3)C2)c1
3: Cc1nc2c(cc1S(=O)(=O)N1CCC3(CC1)C[C@@H](NC[C@H](O)COc1cccc(S(=O)(=O)C4CC4)c1)CO3)N(C)CCO2
In: Arrange items by their IC50 values in increasing order. Provide the ranking by listing each label in its place in the requested order.
Out: 1, 3, 2
